# target system: CaMKII kinase domain D136N mutant (residues 1–283) (Drosophila, UniProt Q00168 1-283, D136N)
# Sequence (Q00168 1-283 D136N): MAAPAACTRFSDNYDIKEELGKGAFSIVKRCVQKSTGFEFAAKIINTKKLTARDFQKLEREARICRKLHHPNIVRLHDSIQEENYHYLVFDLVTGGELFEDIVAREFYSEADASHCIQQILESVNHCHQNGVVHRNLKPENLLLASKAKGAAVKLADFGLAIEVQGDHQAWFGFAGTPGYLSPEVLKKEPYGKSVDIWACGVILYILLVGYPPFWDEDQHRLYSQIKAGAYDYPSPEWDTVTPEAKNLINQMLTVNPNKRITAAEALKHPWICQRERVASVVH
# test method notes: ITC
reported property: Kd (nM)
Hi! Could you send only the number? It should be in nM, unit omitted.

Give Kd for VFPKAPKLQANQAKLARQDTIDEGGEVD (domain or fragment, UniProt Q02280 768-795, looked up)
197
